Reference source for all entries: patent US10385041B2

experimental.system: PAR1 (Homo sapiens, UniProt P25116)
Sequence (P25116 22-425): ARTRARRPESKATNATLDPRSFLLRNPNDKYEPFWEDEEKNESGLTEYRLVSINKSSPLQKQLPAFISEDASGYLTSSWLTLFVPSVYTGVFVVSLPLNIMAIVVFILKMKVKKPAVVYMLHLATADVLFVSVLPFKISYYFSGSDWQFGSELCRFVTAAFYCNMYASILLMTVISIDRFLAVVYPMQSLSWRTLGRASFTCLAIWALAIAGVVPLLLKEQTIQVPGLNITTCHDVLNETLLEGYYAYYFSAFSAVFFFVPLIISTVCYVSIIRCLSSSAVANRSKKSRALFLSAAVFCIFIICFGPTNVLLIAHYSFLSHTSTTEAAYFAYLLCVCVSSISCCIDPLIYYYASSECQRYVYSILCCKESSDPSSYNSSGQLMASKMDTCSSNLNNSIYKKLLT
procedure.details: Calcium ion influx experiment (FLIPR), PAR1 inhibition activity, HEK293-Ga15-PAR1 cell strain, agonist haTRAP
experimental.context: HEK293-Ga15-PAR1 cells, calcium influx, agonist haTRAP 3 μM, 4-PL fit
Recorded measurements of IC50, one per entry

[
  {
    "compound": "COC[C@@]1(C)[C@H]2CCC3(CO3)[C@@H](/C=C/c3ccc(-c4cccc(F)c4)cn3)[C@]2(C)CC[C@H]1O (some centres unmarked)",
    "IC50, µM": 7.07
  },
  {
    "compound": "COC(=O)[C@]1(C)[C@H](O)CC[C@@]2(C)[C@H](/C=C/c3ccc(-c4cccc(F)c4)cn3)C3(CC[C@@H]21)CO3 (some centres unmarked)",
    "IC50, µM": 0.66
  },
  {
    "compound": "CC(C)c1ccc(Cn2ccc3c4c(N)nc(NC5CC5)nc4ccc32)cc1 [SCH79797, reference compound]",
    "IC50, µM": 8.71
  },
  {
    "compound": "C[C@]1(CO)[C@H]2CCC(CO)[C@@H](CCc3ccc(-c4cccc(C(F)(F)F)c4)cn3)[C@]2(C)CC[C@H]1O (some centres unmarked)",
    "IC50, µM": 8.76
  },
  {
    "compound": "C[C@]1(CO)[C@H]2CCC3(CO3)[C@@H](/C=C/c3ccc(-c4cccc(C(F)(F)F)c4)cn3)[C@]2(C)CC[C@H]1O (some centres unmarked)",
    "IC50, µM": 7.95
  }
]
